Biological target: T1, human cMET (ELISA antigen) (human, UniProt P08581 25-932, limits assumed)
T1 construct: also called hMET
T1 sequence (P08581 25-932 limits assumed): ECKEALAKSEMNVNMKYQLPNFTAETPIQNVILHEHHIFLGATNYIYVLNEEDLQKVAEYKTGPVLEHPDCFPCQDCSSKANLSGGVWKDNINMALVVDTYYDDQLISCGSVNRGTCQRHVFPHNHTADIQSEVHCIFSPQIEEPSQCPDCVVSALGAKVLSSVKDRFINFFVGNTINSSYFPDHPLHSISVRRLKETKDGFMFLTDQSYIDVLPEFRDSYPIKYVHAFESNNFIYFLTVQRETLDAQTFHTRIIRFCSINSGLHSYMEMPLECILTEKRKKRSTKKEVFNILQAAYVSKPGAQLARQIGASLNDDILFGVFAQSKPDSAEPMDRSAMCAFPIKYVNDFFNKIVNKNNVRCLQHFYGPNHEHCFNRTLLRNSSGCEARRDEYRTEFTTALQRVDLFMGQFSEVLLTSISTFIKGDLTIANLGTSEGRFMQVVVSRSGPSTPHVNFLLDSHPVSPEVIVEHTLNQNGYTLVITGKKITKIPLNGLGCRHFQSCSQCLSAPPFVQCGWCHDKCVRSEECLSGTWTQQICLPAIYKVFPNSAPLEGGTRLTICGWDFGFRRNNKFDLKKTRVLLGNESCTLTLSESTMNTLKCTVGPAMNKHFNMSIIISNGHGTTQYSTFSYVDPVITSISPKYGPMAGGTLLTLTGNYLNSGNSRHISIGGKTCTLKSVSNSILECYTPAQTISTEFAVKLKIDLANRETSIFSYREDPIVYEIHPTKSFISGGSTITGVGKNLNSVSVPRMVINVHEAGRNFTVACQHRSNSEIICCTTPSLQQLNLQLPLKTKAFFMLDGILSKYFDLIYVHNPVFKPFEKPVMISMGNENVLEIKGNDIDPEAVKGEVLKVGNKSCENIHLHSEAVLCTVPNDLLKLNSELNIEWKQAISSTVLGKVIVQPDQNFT
Experiment: ELISA on human cMET, relative to parental P3D12
MEASURED METRIC: ELISA hMET vs parental (fold vs parental)
Quick reminder: number only, in fold vs parental, skip the unit.

{"columns": ["BINDER", "VALUE"],
 "data": [
  ["G2aka (humanized P3D12, VH-abb/sdr + VL-abb/sdr) (antibody, V domains shown, Humanized and isotype switched version of P3D12) VH: QVQLVQSGAEVKKPGASVKVSCKASGYTFTSYWMHWVKQAPGQGLDWMGYIKPSTDNTEYAQKFQGRVTLTADKSTSTAYMELSSLRSEDTAVYYCARSYGNYPLMDYWGQGTTVTVSS VL: QIVLTQSPATLSLSPGERATLSCRASQSVTSNYLYWYQQKPGSSPRLLIYSTSNLASGVPARFSGSGSGTDYTLTISRLEPEDFASYFCHQWSSYPPTFGSGTKLEIKR", 0.9],
  ["G2ckv (humanized P3D12, VH-cdr + VL-ven) (antibody, V domains shown, Humanized and isotype switched version of P3D12) VH: QVQLVQSGAEVKKPGASVKVSCKASGYTFTSYWMHWVKQAPGQGLDWIGYIKPSTDNTEYNQKFKDKATLTADKSTSTAYMELSSLRSEDTAVYYCARSYGNYPLMDYWGQGTTVTVSS VL: QIVLTQSPATMSASPGERVTLSCSASSSVTSNYLYWYQQKPGSSPRLWIYSTSNLASGVPARFSGSGSGTSYTLTISRMEPEDAASYFCHQWSSYPPTFGSGTKLEIKR", 1.1]
]}

Now for a further binder.
Q) Give reported ELISA hMET vs parental value for G2akf (humanized P3D12, VH-abb/sdr + VL-fra) (antibody, V domains shown, Humanized and isotype switched version of P3D12) VH: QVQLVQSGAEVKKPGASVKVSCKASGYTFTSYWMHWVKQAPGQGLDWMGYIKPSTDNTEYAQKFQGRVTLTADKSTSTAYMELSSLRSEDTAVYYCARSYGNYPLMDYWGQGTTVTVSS VL: QIVLTQSPAILSLSPGERATLSCSASSSVTSNYLYWYQQKPGSSPKLLIYSTSNLASGVPARFSGSGSGTSYTLTISSLEAEDAASYFCHQWSSYPPTFGSGTKLEIKR
A) 1

Hello, the source for this data is patent US20250032632A1, in case you need it.
